Sourced from ChEMBL document CHEMBL1145355

systemUnderTest: Prothrombin (Homo sapiens, UniProt P00734)
experimentSummary: Inhibition of thrombin
Ki less than 0.2 µM is 1 (yes); Ki greater than or equal to 0.2 µM is 0 (no).

Some entries whose results are on file:
- NCc1ccc(Cl)cc1CNC(=O)[C@@H]1CCCN1C(=O)[C@@H](CCc1cccc[n+]1[O-])NS(=O)(=O)Cc1ccccc1: 1 (yes)
- NCc1ccc(Cl)cc1CNC(=O)[C@@H]1CCCN1C(=O)[C@@H](CCc1cccc[n+]1[O-])NCC(=O)OC1CCCCC1: 1 (yes)
- NCc1ccc(Cl)cc1CNC(=O)CNC(=O)[C@@H](CCc1cccc[n+]1[O-])NS(=O)(=O)Cc1ccccc1: 1 (yes)
- NCc1ccc(Cl)cc1CNC(=O)[C@@H]1CCCN1C(=O)[C@@H](CCc1cccc[n+]1[O-])NS(=O)(=O)CC(=O)O: 1 (yes)
- NCc1ccc(Cl)cc1CNC(=O)[C@H](CCC(=O)O)NC(=O)C(CCc1cccc[n+]1[O-])NS(=O)(=O)Cc1ccccc1 (some centres not stated): 0 (no)

Attention now shifts to the item below.
**Query** For this molecule, is Ki lower than 0.2 µM? NCc1ccccc1CNC(=O)CNC(=O)C(CCc1cccc[n+]1[O-])NS(=O)(=O)Cc1ccccc1 (configuration not stated)
**Result** 0 (no)

---

Measured Ki, listed per entry for reference.
systemUnderTest: Trypsin (Homo sapiens, UniProt P07477+P07478+P35030)
experimentSummary: Inhibition of trypsin
Assay type: protein assay

Past entries and their recorded results:
* O=C(CNC(=O)C(CCc1cccc[n+]1[O-])NS(=O)(=O)Cc1ccccc1)NCc1cccs1 (stereo not drawn) | > 0.5 µM
* C[C@H](NC(=O)[C@@H](CCc1ccccn1)NS(=O)(=O)Cc1ccccc1)C(=O)NCc1cc(Cl)ccc1CN | > 0.5 µM

Could you now consider this next molecule?
**Query** Suppose we examine the molecule NCc1ccc(Cl)cc1CNC(=O)[C@@H]1CCCN1C(=O)[C@@H](CCc1cccc[n+]1[O-])NS(=O)(=O)CC(=O)O ; what Ki value has been reported?
**Result** 0.061 µM

---

systemUnderTest: Coagulation factor X (Homo sapiens)
Sequence (P00742 41-179 limits assumed): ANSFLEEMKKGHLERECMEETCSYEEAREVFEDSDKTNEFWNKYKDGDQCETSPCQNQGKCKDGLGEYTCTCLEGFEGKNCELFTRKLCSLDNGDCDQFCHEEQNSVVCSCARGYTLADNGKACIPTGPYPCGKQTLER
Sequence (P00742 235-488 limits assumed): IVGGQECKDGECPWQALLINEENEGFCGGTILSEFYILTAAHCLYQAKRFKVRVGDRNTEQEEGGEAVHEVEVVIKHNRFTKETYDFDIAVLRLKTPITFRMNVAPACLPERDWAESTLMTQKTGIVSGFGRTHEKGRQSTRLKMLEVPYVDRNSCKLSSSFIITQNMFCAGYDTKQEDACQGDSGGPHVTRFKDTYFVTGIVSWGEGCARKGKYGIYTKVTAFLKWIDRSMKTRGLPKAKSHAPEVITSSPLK
Measured pKi, listed per entry for reference.
Entry type: numeric. Quantity: pKi, the -log10 of concentration in molar units.

* CCOC(=O)CN[C@H](CCc1cccc[n+]1[O-])C(=O)N1CCC[C@H]1C(=O)NCc1cc(Cl)ccc1CN | 8.77
* O=C(CNC(=O)[C@@H](CCc1cccc[n+]1[O-])NS(=O)(=O)Cc1ccccc1)NCCc1ccncc1 | 5.41
* O=C(CNC(=O)C(CCc1cccc[n+]1[O-])NS(=O)(=O)Cc1ccccc1)NCc1ccc(Cl)s1 (stereo not drawn) | 7.28
* O=C(CNC(=O)C(CCc1cccc[n+]1[O-])NS(=O)(=O)Cc1ccccc1)NCc1cccs1 (stereo not drawn) | 7.28
* CCOC(=O)CC(=O)NC(CCc1cccc[n+]1[O-])C(=O)NCC(=O)NCc1cc(Cl)ccc1CN (stereo not drawn) | 6.70
* C[C@H](NC(=O)[C@@H](CCc1ccccn1)NS(=O)(=O)Cc1ccccc1)C(=O)NCc1cc(Cl)ccc1CN | 10.08
* N=C(N)c1ccc(CNC(=O)CNC(=O)[C@@H](CCc2cccc[n+]2[O-])NS(=O)(=O)Cc2ccccc2)cc1 | 9.49

Could you now consider this next compound?
**Query** Suppose we examine the compound NCc1ccccc1CNC(=O)CNC(=O)C(CCc1cccc[n+]1[O-])NS(=O)(=O)Cc1ccccc1 (stereo not drawn) ; what pKi value has been reported?
**Result** 7.49

---

experimentSummary: Permeability across Caco-2 cell membrane
Assay type: ADME, cell-based
setupConditions: human
Measured Papp, listed per entry for reference.
Respond with the bare value in ×10⁻⁶ cm/s.

**Query** Suppose we examine the compound CCOC(=O)CN[C@H](CCc1ccccn1)C(=O)N1CCC[C@H]1C(=O)NCc1cc(Cl)ccc1CN ; what Papp value has been reported?
**Result** 2.4

**Query** What about this compound? CCOC(=O)CN[C@H](CCc1ccc(O)cc1)C(=O)N1CCC[C@H]1C(=O)NCc1cc(Cl)ccc1CN
**Result** 8.9

**Query** What about this compound? NCc1ccc(Cl)cc1CNC(=O)[C@@H]1CCCN1C(=O)[C@@H](CCc1ccccn1)NCC(=O)O
**Result** 5

---

Lab note: pKi readings collected with Prothrombin (Homo sapiens, UniProt P00734) for the following molecules.
Entry type: numeric. Quantity: pKi, the -log10 of concentration in molar units.

**Query** Suppose we examine the molecule C[C@H](NC(=O)[C@@H](CCc1ccccn1)NS(=O)(=O)Cc1ccccc1)C(=O)NCc1cc(Cl)ccc1CN ; what pKi value has been reported?
**Result** 7.62

**Query** What about this molecule? COC(=O)Cc1ccc(CS(=O)(=O)NC(CCc2cccc[n+]2[O-])C(=O)NCC(=O)NCc2cc(Cl)ccc2CN)cc1 (stereo not drawn)
**Result** 6.00

**Query** What about this molecule? NCc1ccc(Cl)cc1CNC(=O)CNC(=O)C(CCc1cccc[n+]1[O-])NS(=O)(=O)CC(=O)O (stereo not drawn)
**Result** 5.08

**Query** What about this molecule? COC(=O)C(=O)N[C@H](CCc1cccc[n+]1[O-])C(=O)N1CCC[C@H]1C(=O)NCc1cc(Cl)ccc1CN
**Result** 7.75

**Query** What about this molecule? CCOC(=O)CN[C@H](CCc1ccccn1)C(=O)N1CCC[C@H]1C(=O)NCc1cc(Cl)ccc1CN
**Result** 8.42

**Query** What about this molecule? N=C(N)c1ccc(CNC(=O)CNC(=O)[C@@H](CCc2cccc[n+]2[O-])NS(=O)(=O)Cc2ccccc2)cc1
**Result** 5.57

**Query** What about this molecule? NCc1ccc(Cl)cc1CNC(=O)[C@@H]1CCCN1C(=O)[C@@H](CCc1ccc(O)cc1)NCC(=O)O
**Result** 8.49

**Query** What about this molecule? CC(C)OC(=O)CS(=O)(=O)NC(CCc1cccc[n+]1[O-])C(=O)NCC(=O)NCc1cc(Cl)ccc1CN (stereo not drawn)
**Result** 6.28

---

Test system: Plasma
experimentSummary: Anticoagulant activity in human plasma by TT assay
Type: functional
valueType: log10 IC200 (log10 of the value in µM)
Values below are the log10 of the recorded IC200, with µM as the unit.

Past entries and their recorded results:
* COC(=O)C(=O)N[C@H](CCc1cccc[n+]1[O-])C(=O)N1CCC[C@H]1C(=O)NCc1cc(Cl)ccc1CN | -0.89
* NCc1ccc(Cl)cc1CNC(=O)CNC(=O)C(CCc1cccc[n+]1[O-])NS(=O)(=O)CC(=O)O (stereo unspecified) | 1.76
* NCc1ccc(Cl)cc1CNC(=O)[C@@H]1CCCN1C(=O)[C@@H](CCc1ccccn1)NCC(=O)O | -1.52
* NCc1ccc(Cl)cc1CNC(=O)CNC(=O)C(CCc1cccc[n+]1[O-])NS(=O)(=O)Cc1ccc(CC(=O)O)cc1 (stereo unspecified) | 0.08
* NCc1ccc(Cl)cc1CNC(=O)CNC(=O)C(CCc1cccc[n+]1[O-])NC(=O)C(=O)O (stereo unspecified) | 1.18

**Query** Suppose we examine the molecule NCc1ccc(Cl)cc1CNC(=O)[C@@H]1CCCN1C(=O)[C@@H](CCc1cccc[n+]1[O-])NS(=O)(=O)CC(=O)O ; what log10 IC200 value has been reported?
**Result** -0.96

**Query** What about this molecule? CCOC(=O)CN[C@H](CCc1ccc(O)cc1)C(=O)N1CCC[C@H]1C(=O)NCc1cc(Cl)ccc1CN
**Result** -0.64

**Query** What about this molecule? NCc1ccc(Cl)cc1CNC(=O)[C@@H]1CCCN1C(=O)[C@@H](CCc1cccc[n+]1[O-])NCC(=O)O
**Result** -0.77

**Query** What about this molecule? NCc1ccc(Cl)cc1CNC(=O)CNC(=O)[C@@H](CCc1cccc[n+]1[O-])NS(=O)(=O)Cc1ccccc1
**Result** -0.30

**Query** What about this molecule? NCc1ccc(Cl)cc1CNC(=O)[C@@H]1CCCN1C(=O)[C@@H](CCc1ccc(O)cc1)NCC(=O)O
**Result** -0.82

---

systemUnderTest: Prothrombin (Homo sapiens)
Ki less than 0.02 µM is 1 (yes); Ki greater than or equal to 0.02 µM is 0 (no).

Some entries whose results are on file:
* COC(=O)C(=O)NC(CCc1cccc[n+]1[O-])C(=O)N1CCC[C@H]1C(=O)NCc1cc(Cl)ccc1CN (stereo partly specified) | 1 (yes)
* O=C(CNC(=O)[C@@H](CCc1cccc[n+]1[O-])NS(=O)(=O)Cc1ccccc1)NCCc1ccncc1 | 0 (no)
* CCOC(=O)CN[C@H](CCc1ccc(O)cc1)C(=O)N1CCC[C@H]1C(=O)NCc1cc(Cl)ccc1CN | 1 (yes)
* CCCCCCOC(=O)CN[C@H](CCc1cccc[n+]1[O-])C(=O)N1CCC[C@H]1C(=O)NCc1cc(Cl)ccc1CN | 1 (yes)
* CCCS(=O)(=O)NC(CCc1cccc[n+]1[O-])C(=O)NCC(=O)NCc1cc(Cl)ccc1CN (stereo unspecified) | 0 (no)

Attention now shifts to the item below.
**Query** For this molecule, is Ki lower than 0.02 µM? O=C(CNC(=O)C(CCc1cccc[n+]1[O-])NS(=O)(=O)Cc1ccccc1)NCc1ccc(Cl)s1 (stereo unspecified)
**Result** 0 (no)
